This collection of values is drawn from patent US20040037843A1.

target: HLA-A*6802 (human)
assayMethodText: inhibition of 125I probe peptide binding to purified HLA, gel filtration
testParameters: remark: other sources report otherwise
Catalogue of pIC50 readings, one per entry.
On this scale, pIC50 is minus log10 of a concentration expressed in M (mol/L).

LMLLRLSEPA [Peptide 63.0014 (PSA.117)] = 5.30

Exercise: Which measured pIC50 value corresponds to TLSVTWIGV [Peptide 60.0217 (PSA.5.V9)] ?
Solution: 6.64
